Recorded fluorescence intensity at bottom (B) of microplate after antigen binding by entry
# assayTarget: T1, Anti-hCG antibody(m)
# T1 construct: also called mouse IgG (hCG)
# assaySummary: labelled peptide on antibody immobilised on microplate; antigen hCG
Ends that are not written are not given here. FAM = carboxyfluorescein (FAM) fluorescent label
measuredAttribute: fluorescence intensity at bottom (B) of microplate after antigen binding

{"binder": "{FAM}-VYYCFQGSHVPFTK (Synthetic 14-mer homologous to the FR3 or FR4 region of the light chain; also called L2 switching peptide; second peptide compound L2) [L2 peptide]", "measValue": 3070}
{"binder": "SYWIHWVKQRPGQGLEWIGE (not fully specified (N-terminus), Synthetic 20-mer homologous to the FR2 region of the heavy chain; The fluorescent label differs between experiments; also called H1 switching peptide; third peptide compound H1) [H1 peptide]", "measValue": 1940}
{"binder": "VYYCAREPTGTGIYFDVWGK (not fully specified (N-terminus), Synthetic 20-mer homologous to the FR3 or FR4 region of the heavy chain; The label differs between experiments; also called H2 switching peptide; fourth peptide compound H2) [H2 peptide]", "measValue": 23300}
{"binder": "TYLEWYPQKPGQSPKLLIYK (not fully specified (N-terminus), Synthetic 20-mer homologous to the FR2 region of the light chain; The label differs between experiments; also called L1 switching peptide; first peptide compound L1) [L1 peptide]", "measValue": 1780}
